- assay_notes: NCI Yeast Anticancer Drug Screen. Data for the mlh1 rad18 strain (AID 175)
- experimental_conditions: S. cerevisiae mlh1 rad18 strain growth inhibition; at 50.0 µM; hits give high values
Compounds without any hit were thinned out: in the full panel of roughly 79,000, 15% have a hit.
For each of the molecules below, state its growth inhibition.
One number for each entry, in %.

For orientation, consider the following solved cases.
>>> print(df.to_string())
                                   molecule  units  numeric_readout
0             CN(C)NP(=O)(c1ccccc1)c1ccccc1      %             -2.9
1                    N#CC(C#N)=Cc1ccc(F)cc1      %            -15.5
2                       CC(=O)Nc1ccc(Cl)cc1      %             -1.9
3  C=C(Nc1nc2ccc(C)cc2s1)C(=O)C(CC)C(=O)C(CC)CC1C(=O)NC(=O)NC1=O (stereo unspecified)      %             -0.2
4  CC([OH2+])CNCCN.CC([OH2+])CNCCN.O=[N+]([O-])[O-].[Cu+2] (stereo unspecified)      %              0.2

For every item in the list below, what is its measured growth inhibition?
1. COc1ccc2c(c1)C13CCCCC1C(C2)[N+](C)([O-])CC3 (stereo unspecified)
2. O=c1ccn(C2OC(CO)C(O)C2[Se]c2ccccc2)c(=O)[nH]1 (stereo unspecified)
3. CC1=CC(=O)[C@@H](O)[C@]2(C)[C@H]3[C@@]4(O)OC[C@]35[C@H]([C@@H](C)[C@H]4O)[C@@H](O)C(=O)O[C@@H]5C[C@@H]12
4. CC1=CC2=C(C)C3(CC3)[C@@](C)(O)C(=O)C2=C1
5. O=P(O)(O)CCP(=O)(O)O
6. COc1cc(C(O)CN)cc(OC)c1OC (stereo unspecified)
7. COP(=O)(OC)C(C)(C)NC(=O)NC(F)(F)F
8. CCCC[C@@H]1CCN2C[C@@H](O)[C@@H](O)[C@@H]2[C@H]1O

Output:
1. 4.95
2. 27.1
3. 35.9
4. -15.2
5. -13.7
6. -6.8
7. -4.25
8. -12.9

Hey, quick one: what's growth inhibition for each of these?
1. CC1N=C(c2ccccc2)C2(c3ccccc3)C(C)N12 (stereo unspecified)
2. O=C(CCc1ccccc1)Nc1ccc(Cl)cc1C(=O)c1ccccc1
3. O=C(CN1C(=O)c2ccccc2C1=O)OCCNCCCl
4. CCCCOCCOP(=O)(OCCOCCCC)OCCOCCCC
5. CC(C)OP(=O)(OC(C)C)/C(C#N)=C/c1ccco1
6. CCOC(=O)C1C2(C)NC(=O)C1(Cc1ccccc1)c1cc(C)c(C)cc1O2 (stereo unspecified)
7. CC(=[N-])CC(C)=O.CC(=[N-])CC(C)=O.[Cu+2]
8. N#CC(OC1OC(C(=O)O)C(O)C(O)C1O)c1ccccc1 (stereo unspecified)

Output:
1: 5.85; 2: 28.6; 3: 98.5; 4: -28.4; 5: -31.9; 6: 3.45; 7: 8.2; 8: 2.25

Answer for every listed entry: what is its growth inhibition? The entries follow.
1. CCC1CC[Si](C)(C)CC12C(=O)NC(=O)NC2=O (stereo unspecified)
2. CCOC(OCC)/C(=C\N(C)C)N=C(C#N)C#N
3. CCN(CC)CCc1ccncc1
4. c1ccc(OP(Oc2ccccc2)(c2ccccc2)(c2ccccc2)c2ccccc2)cc1
5. C[C@]12CC[C@H](OC(=O)Cc3ccc(N(CCCl)CCCl)cc3)CC1CC[C@@H]1C2CC[C@]2(C)NC(=O)CCC12 (stereo partly specified)
6. CCC(O)C[As](=O)(O)c1ccccc1OC (stereo unspecified)
7. NC(N)=Nc1nn[nH]n1
8. O=[N+]([O-])c1ccc(C[N+]23CCN(CC2)CC3)cc1

Output:
-0.55
-2.05
9.65
-42.6
18.1
-1.65
-5.6
3.8

Please state growth inhibition for every molecule in the list that follows.
1. CC(CO)[N+](=O)[O-] (stereo unspecified)
2. CCC[CH2][Sn]1([CH2]CCC)[O]CC2(CCCCC2)C[O]1

Output:
1
99.6
